# Tested on: A549 NSCLC
# Protocol notes: NCI tumour cell line growth inhibition, 48 h
Quantity measured: TGI

Reference set (3 entries):
{"Molecule": "CC1=N[C@@](C)(C2CC3C=CC2C3=O)COC1=O (some centres not stated)", "TGI": "> 100 µM"}
{"Molecule": "Cc1ccsc1C(=S)Nc1ccc(Cl)c(/C=N/OC(C)C)c1", "TGI": "> 100 µM"}
{"Molecule": "O=[N+]([O-])c1oc2ccc3ccccc3c2c1CCO", "TGI": "7.29 µM"}

What value of TGI has been recorded for this entry: CC(C)C(Sc1nc(-c2ccccc2)c(-c2ccccc2)[nH]1)c1n[nH]c(=S)n1-c1ccccc1 (configuration not stated)
> 100 µM

Here is the next molecule: Cc1cccc(Cl)c1NC(=O)c1cnc(Nc2cc(N3CCOCC3)cc(S(C)(=O)=O)c2)s1
> 10 µM

Same question for COC(=O)C(=O)C(/C(=N/N)C(=O)Nc1ccccc1C(N)=O)c1nc2ccc([N+](=O)[O-])cc2[nH]c1=O (configuration not stated) please.
> 100 µM

Another molecule to check: COc1ccc(NC(=O)c2ccc(NC3=C(Cl)C(=O)N(Cc4ccccc4)C3=O)cc2)c(OC)c1
> 100 µM

* * *

# System: SF-295 CNS
# Protocol notes: NCI tumour cell line growth inhibition, 48 h
Quantity measured: TGI

Consider the worked cases shown below.
{"Compound": "N#CCc1nnc(N)o1", "TGI": "> 100 µM"}
{"Compound": "[Cu+2].[NH-]C(CC(=O)O)C(=O)O.[NH-]C(CC(=O)O)C(=O)O (stereo not given)", "TGI": "> 100 µM"}
{"Compound": "COc1cc(C2c3cc4c(cc3OC(NCCO)C2C)OCO4)cc(OC)c1O (stereo not given)", "TGI": "> 100 µM"}
{"Compound": "O=C1C(c2ccccc2)=C(c2ccccc2)C(c2ccc(Sc3ccc(C4=C(c5ccccc5)C(=O)C(c5ccccc5)=C4c4ccccc4)cc3)cc2)=C1c1ccccc1", "TGI": "> 100 µM"}

// next entry
Identify the measured TGI of CN1CCN(Cc2nc3c(s2)CCc2sccc2-3)CC1 for SF-295 CNS.
> 100 µM

* * *

# System: SK-OV-3 ovarian
# Protocol notes: NCI tumour cell line growth inhibition, 48 h
Listed compounds paired with reported TGI

Here is how some compounds turned out for TGI.
{"Compound": "CC1=CC(=O)N(n2c(Cc3ccc(Cl)cc3)n[nH]c2=O)C1=O", "Quantity measured": "TGI", "Result": "> 100 µM"}
{"Compound": "COc1cccc(C2SCc3nc4ccccc4n32)c1 (stereo unspecified)", "Quantity measured": "TGI", "Result": "> 100 µM"}
{"Compound": "Cc1nc2c3c(ccc2[nH]c1=O)C(=O)c1ccccc1C3=O", "Quantity measured": "TGI", "Result": "> 100 µM"}

Which TGI value is on record for COC(=O)c1oc2c(C(=O)/C=C/c3ccc(OC)cc3)c(OCCN3CCOCC3)ccc2c1C ?
8.61 µM

Can you handle NCCSC(c1ccccc1)(c1ccccc1)c1ccccc1 next?
12.5 µM

Could you do the same for COc1cc(CNc2c3ccccc3nc3ccccc23)cc(OC)c1OC , please?
28.4 µM

Then this compound: CN(C)CCNC(=O)c1ccc2oc3cc4ccccc4c(=O)n3c2c1
> 100 µM

// query: CN1C(=O)C2(c3ccccc31)C1CC3C(CO1)C1C2C3(CO)CN1C#N (stereo unspecified)
> 100 µM

What do you get for O=C1c2c(Cl)c(Cl)c(Cl)c(Cl)c2C(=O)C2(Cl)CC=CCC12Cl (stereo unspecified) ?
10.9 µM

Also, CN1NC(c2ccccc2)=C(C#N)C(=O)CC1c1ccc(F)cc1 (stereo unspecified) please.
> 100 µM

Here is the next compound: CC1Cc2ccccc2N1C(=O)Cc1nc(N2CCOCC2)cc(=O)[nH]1 (stereo unspecified)
> 100 µM

* * *

# Tested on: OVCAR-5 ovarian
# Protocol notes: NCI tumour cell line growth inhibition, 48 h
Quantity measured: GI50

Past entries and their recorded results:
{"Smi": "CN(C)c1ccccc1[CH2][Ga]([Cl])[CH2]c1ccccc1N(C)C", "Tgt": "OVCAR-5 ovarian", "GI50": "1.35 µM"}
{"Smi": "CCCN(CCC)c1ccc(C=O)c(C)c1", "Tgt": "OVCAR-5 ovarian", "GI50": "58.5 µM"}

Return reported GI50; argument: COc1cc(CCNC(=O)OC(C)(C)C)c2c(c1OC)SSSSS2
3.14 µM

Next up: CC(=O)N[C@@H](Cc1ccc(OP(=O)(O)O)cc1)C(=O)N[C@H]1CCC(=O)N2CCC[C@@H](C(=O)NCc3ccccc3)N2C1=O
> 25 µM

Item: C=C1C(=O)O[C@H]2[C@H]1CC/C(CNC(=O)/C=C/c1ccccc1F)=C\CC[C@@]1(C)O[C@@H]21
1.9 µM

* * *

# Test system: SF-268 CNS
# Protocol notes: NCI tumour cell line growth inhibition, 48 h
Quantity measured: TGI (µM)
The figure you give is taken to be in µM; do not add the unit.

{"Molecule": "CCN(CCO)CCNc1ccc(C)c2sc3ccccc3c(=O)c12", "Number": 20.9}

Then this molecule:
Would you mind telling me what TGI value was observed for CCCCCCCCCCCCCCCCCC(=O)OCC1OC(OC)C(NC(=O)N(CCCl)N=O)C(O)C1O (stereo not given) ?
26.7

* * *

Entries annotated with measured TGI
# Tested on: EKVX NSCLC
# Protocol notes: NCI tumour cell line growth inhibition, 48 h
Residues, ends and D or L forms follow the SMILES beside them. *: point of attachment. Cbz = O=C(OCc1ccccc1)*

Completed entries (count: 8):
{"Molecule": "CC(C)C[C@@H](C=O)NC(=O)[C@H](CC(C)C)NC(=O)[C@H](CC(C)C)NC(=O)OCc1ccccc1 (Cbz-Leu-Leu-Leu-aldehyde)", "Tgt": "EKVX NSCLC", "Result": "> 100 µM"}
{"Molecule": "Cc1ccccc1Nc1nc(NNC(=O)Cc2ccccc2)nc(NNC(=O)c2ccncc2)n1", "Tgt": "EKVX NSCLC", "Result": "> 10 µM"}
{"Molecule": "CN1CCN(Cc2nc3c(s2)CCc2sccc2-3)CC1", "Tgt": "EKVX NSCLC", "Result": "> 100 µM"}
{"Molecule": "COc1cccc(NC(=O)CC(=O)NN2C(=O)/C(=C/c3ccc(N(CCC#N)CCC#N)cc3)N=C2c2cc([N+](=O)[O-])ccc2Cl)c1", "Tgt": "EKVX NSCLC", "Result": "> 100 µM"}
{"Molecule": "NC(CCCCNCc1ccccc1)C(=O)O (stereo not given)", "Tgt": "EKVX NSCLC", "Result": "> 100 µM"}
{"Molecule": "O=c1oc2ccc(Br)cc2c(=O)n1-c1ccc(Cl)cc1F", "Tgt": "EKVX NSCLC", "Result": "7.81 µM"}
{"Molecule": "C=CC1(c2ccc3ccccc3c2)OCC(CC)O1 (stereo not given)", "Tgt": "EKVX NSCLC", "Result": "> 100 µM"}
{"Molecule": "NC(=O)c1cc(Br)ccc1NC(=O)/C=C/c1ccccc1", "Tgt": "EKVX NSCLC", "Result": "> 100 µM"}

Need TGI of S=C1CC(c2ccccc2)Sc2cc(Cl)ccc2N1 (stereo not given) , thanks.
> 100 µM

Then Cc1cc(=O)n2c3c(c4c(cc13)c(CN(C)C)cc(=O)n4C)OC2 ?
> 58.2 µM

* * *

# Tested on: HT29 colon
# Protocol notes: NCI tumour cell line growth inhibition, 48 h
Quantity measured: TGI

{"Compound": "CC(C)(C)n1c(=O)n2n(c1=O)C1c3cccc4cccc(c34)C2C2c3cccc4cccc(c34)C1n1c(=O)n(C(C)(C)C)c(=O)n12", "TGI": "> 100 µM"}
{"Compound": "COc1cc(C2CC(=O)Nc3c2c(C)nn3-c2nc3ccccc3[nH]2)cc(OC)c1O (stereo not given)", "TGI": "16.6 µM"}
{"Compound": "CC(=Nc1ccc(Cl)c(Cl)c1)c1ccncc1", "TGI": "> 100 µM"}

Requested field: TGI. Item: CN1CC2=C(NC(=S)NC2c2ccccc2Cl)/C(=C/c2ccccc2Cl)C1 (stereo not given)
> 100 µM

What do you have for CCOC(=O)C1SC(=Nc2ccc(Cl)cc2Cl)N=C1C (stereo not given) ?
> 100 µM

Lookup O=CN1CCC23CC(O)CCC2C1Cc1cc(Oc2nnnn2-c2ccccc2)cc(O)c13 (stereo not given)
> 100 µM

Here is the next compound: O=C1CC(N2C(=O)/C(=C/C(Cl)=C\c3ccc([N+](=O)[O-])cc3)SC2=S)C(=O)N1c1ccc(O)cc1 (stereo not given)
8.78 µM

* * *

Recorded TGI values for a group of compounds are listed next.
# Tested on: HOP-62 NSCLC
# Protocol notes: NCI tumour cell line growth inhibition, 48 h
Where a SMILES comes first, the peptide text is derived from it.

{"Compound": "Cc1ccc(OCCOCCOCCOCCOCCOc2ccc(C)n(O)c2=S)c(=S)n1O", "TGI": "> 84.6 µM"}
{"Compound": "Cc1ccc(-c2nnc3s/c(=C\\c4ccc(N(C)C)cc4)c(=O)n23)cc1", "TGI": "> 100 µM"}

What is its TGI for HOP-62 NSCLC? Entry: CCC(C)C(NC(=O)C(CC(C)C)NC(=O)CNC(=O)C(NC(=O)C1CCCN1C(=O)C(CC(C)C)NC(=O)C(N)Cc1ccccc1)C(C)CC)C(=O)NC(CC(C)C)C(N)=O (centres undefined) (H-FLPIGLIL-NH2; configuration not given here)
> 75 µM

Same lookup for COc1cc(CNc2cnc3ccc(N)cc3n2)cc(OC)c1OC , please.
> 100 µM

What about O=S(=O)(CCC[C@H]1[C@@H](CCOCc2ccccc2)C2CCCN1O2)c1ccccc1 (some centres undefined) ?
> 100 µM

Entry to check: CCNCCNc1cc(-c2ccc(C(F)(F)F)cc2)c(C#N)c2nc3cc(Cl)c(Cl)cc3n12
3.56 µM

Another compound to check: CN1CCN(Cc2nc3c(s2)CCc2sccc2-3)CC1
> 100 µM

meta.source: PubChem BioAssay (NCI)
